# Test system: 885724-159-R-J1-PDC KRAS PDC multicell spheroid viability;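 also: spheroids exposed to agents for 7 days before readout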
# assay-info: Anticancer human tumor 885724-159-R-J1-PDC patient-derived pancreatic adenocarcinoma cell line growth inhibition [KRAS2]
# conditions: second compound 0.316 µM; first compound 0.01 µM; active compounds read low
Recorded viability, T/C, one value per entry.

>  <molecule>
CC(=O)OC12COC1CC(O)C1(C)C(=O)C(O)C3=C(C)C(OC(=O)C(O)C(NC(=O)OC(C)(C)C)c4ccccc4)CC(O)(C(OC(=O)c4ccccc4)C21)C3(C)C (centres undefined) + CNCc1ccccc1-c1csc(C(C)Nc2nc(C)nc3cc(OC)c(OC)cc23)c1

>  <experimental-target>
885724-159-R-J1-PDC KRAS PDC multicell spheroid viability;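 also: spheroids exposed to agents for 7 days before readout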

>  <viability, T/C (%)>
85.6

$$$$
>  <molecule>
CCN1CCN(Cc2ccc(Nc3ncc(F)c(-c4cc(F)c5nc(C)n(C(C)C)c5c4)n3)nc2)CC1 + COc1cc2nc(C)nc(NC(C)c3cc(N)cc(C(F)(F)F)c3)c2cc1OC1CCOC1

>  <experimental-target>
885724-159-R-J1-PDC KRAS PDC multicell spheroid viability;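 also: spheroids exposed to agents for 7 days before readout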

>  <viability, T/C (%)>
86.2

$$$$
>  <molecule>
Cn1ncnc1[C@H]1c2n[nH]c(=O)c3cc(F)cc(c23)N[C@@H]1c1ccc(F)cc1 + CNCc1ccccc1-c1csc(C(C)Nc2nc(C)nc3cc(OC)c(OC)cc23)c1

>  <experimental-target>
885724-159-R-J1-PDC KRAS PDC multicell spheroid viability;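 also: spheroids exposed to agents for 7 days before readout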

>  <viability, T/C (%)>
98

$$$$
>  <molecule>
CC(=O)OC12COC1CC(O)C1(C)C(=O)C(O)C3=C(C)C(OC(=O)C(O)C(NC(=O)OC(C)(C)C)c4ccccc4)CC(O)(C(OC(=O)c4ccccc4)C21)C3(C)C (centres undefined) + C=CC(=O)N1CCN(c2nc(OCC3CCCN3C)nc3c2CCN(c2cccc4cccc(C)c24)C3)CC1CC#N

>  <experimental-target>
885724-159-R-J1-PDC KRAS PDC multicell spheroid viability;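 also: spheroids exposed to agents for 7 days before readout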

>  <viability, T/C (%)>
85.5

$$$$
